Measured Conc. at the lover layer, listed per entry for reference.
System: Caco-2 cell monolayer
assay-info: Permeation to Caco-2 cell monolayer
Assay type: in vitro ADME, human
Parameters: unit not given here
study-conditions: 4-hour incubation, initial concentration 500 μM in upper layer
Reply briefly: the number, and no unit.

See these solved cases before continuing.
[[record]]
compound = "CC[C@H](C)[C@H](NC(=O)[C@H](CO)NC(=O)[C@@H](NC(=O)[C@@H]1CCCN1C(=O)[C@H](C)NC(=O)[C@H](CC(N)=O)NC(=O)OCC(C)C)C(C)C)C(=O)N1CCC[C@H]1C(=O)N[C@@H](CCC(N)=O)C(=O)O [BMEC-NAP0401, iBu-OCO-NAPVSIPQ-OH]"
test_value = 0.24

[[record]]
compound = "CCCC(=O)N[C@@H](CC(N)=O)C(=O)N[C@@H](C)C(=O)N1CCC[C@H]1C(=O)N[C@H](C(=O)N[C@@H](CO)C(=O)N[C@H](C(=O)N1CCC[C@H]1C(=O)N[C@@H](CCC(N)=O)C(N)=O)[C@@H](C)CC)C(C)C [BMEC-NAP0201, Butyryl-NAPVSIPQ-NH2]"
test_value = 0.12


I am curious: what Conc. at the lover layer value has been reported for CC[C@H](C)[C@H](NC(=O)[C@H](CO)NC(=O)[C@@H](NC(=O)[C@@H]1CCCN1C(=O)[C@H](C)NC(=O)[C@H](CC(N)=O)NC(=O)OCc1ccccc1)C(C)C)C(=O)N1CCC[C@H]1C(=O)N[C@@H](CCC(N)=O)C(N)=O [BMEC-NAP0805, Cbz-NAPVSIPQ-NH2] ? 0.27

I am curious: what Conc. at the lover layer value has been reported for CCCCCCOC(=O)N[C@@H](CC(N)=O)C(=O)N[C@@H](C)C(=O)N1CCC[C@H]1C(=O)N[C@H](C(=O)N[C@@H](CO)C(=O)N[C@H](C(=O)N1CCC[C@H]1C(=O)N[C@@H](CCC(N)=O)C(N)=O)[C@@H](C)CC)C(C)C [BMEC-NAP0504, nHex-OCO-NAPVSIPQ-NH2] ? 0.49

---

Test system: Caco-2 cell monolayer
assay-info: Permeation to Caco-2 cell monolayer
Type: in vitro ADME, human
Set-up: unit not given here
study-conditions: 4-hour incubation, initial concentration 500 μM in upper layer
Where a SMILES comes first, the peptide text is derived from it. Bridges are numbered along the chain shown (N, C = ends).
Label yes when Conc. at the lover layer >= 0.8; otherwise no.

Some entries whose results are on file:
[[record]]
compound = "CC[C@H](C)[C@H](NC(=O)[C@H](CO)NC(=O)[C@@H](NC(=O)[C@@H]1CCCN1C(=O)[C@H](C)NC(=O)[C@H](CC(N)=O)NC(=O)c1ccc2c(c1)C(=O)OC21c2ccc(O)cc2Oc2cc(O)ccc21)C(C)C)C(=O)N1CCC[C@H]1C(=O)N[C@@H](CCC(N)=O)C(=O)O [BMEC-NAP9901, 5(6)FAM-NAPVSIPQ-OH]"
class_name = "no"

[[record]]
compound = "CC[C@H](C)[C@@H]1NC(=O)[C@H](CO)NC(=O)[C@H](C(C)C)NC(=O)[C@@H]2CCCN2C(=O)[C@H](C)NC(=O)[C@H](CC(N)=O)NC(=O)[C@@H](N)CSSC[C@@H](C(=O)O)NC(=O)[C@H](CCC(N)=O)NC(=O)[C@@H]2CCCN2C1=O [BMEC-NAP0302] (H-CNAPVSIPQC-OH; disulfide 1-10; N-terminus and C-terminus assumed)"
class_name = "yes"

[[record]]
compound = "CC[C@H](C)[C@@H]1NC(=O)[C@H](CO)NC(=O)[C@H](C(C)C)NC(=O)[C@@H]2CCCN2C(=O)[C@H](C)NC(=O)[C@H](CC(N)=O)NC(=O)[C@H](CCC(N)=O)NC(=O)[C@@H]2CCCN2C1=O [BMEC-NAP0301, Cyclo-(NAPVSIPQ)]"
class_name = "no"

[[record]]
compound = "CCCCC(CC)COC(=O)N[C@@H](CC(N)=O)C(=O)N[C@@H](C)C(=O)N1CCC[C@H]1C(=O)N[C@H](C(=O)N[C@@H](CO)C(=O)N[C@H](C(=O)N1CCC[C@H]1C(=O)N[C@@H](CCC(N)=O)C(=O)O)[C@@H](C)CC)C(C)C (stereo partly shown) [BMEC-NAP0402, iOct-OCO-NAPVSIPQ-OH]"
class_name = "yes"

[[record]]
compound = "CC[C@H](C)[C@H](NC(=O)[C@H](CO)NC(=O)[C@@H](NC(=O)[C@@H]1CCCN1C(=O)[C@H](C)NC(=O)[C@H](CC(N)=O)NC(=O)c1cccs1)C(C)C)C(=O)N1CCC[C@H]1C(=O)N[C@@H](CCC(N)=O)C(N)=O [BMEC-NAP0804, 2-Thiophenecarbonyl-NAPVSIPQ-NH2]"
class_name = "no"

[[record]]
compound = "CCCCOC(=O)N[C@@H](CC(N)=O)C(=O)N[C@@H](C)C(=O)N1CCC[C@H]1C(=O)N[C@H](C(=O)N[C@@H](CO)C(=O)N[C@H](C(=O)N1CCC[C@H]1C(=O)N[C@@H](CCC(N)=O)C(N)=O)[C@@H](C)CC)C(C)C [BMEC-NAP0503, nBu-OCO-NAPVSIPQ-NH2]"
class_name = "no"


Confirm if Conc. at the lover layer reported for the compound CCCCCCOC(=O)N[C@@H](CC(N)=O)C(=O)N[C@@H](C)C(=O)N1CCC[C@H]1C(=O)N[C@H](C(=O)N[C@@H](CO)C(=O)N[C@H](C(=O)N1CCC[C@H]1C(=O)N[C@@H](CCC(N)=O)C(=O)O)[C@@H](C)CC)C(C)C [BMEC-NAP0404, nHex-OCO-NAPVSIPQ-OH] is 0.8 or above. yes

---

assay-info: Stability in Hanks' balanced salt solution (HBSS)
Type: physicochemical
study-conditions: 37° C., relative to initial conc. in HBSS = 100.00
readout-kind: Conc. after 4-hour in HBSS
Reply briefly: the number, and no unit.

See these solved cases before continuing.
[[record]]
structure_string = "CC[C@H](C)[C@H](NC(=O)[C@H](CO)NC(=O)[C@@H](NC(=O)[C@@H]1CCCN1C(=O)[C@H](C)NC(=O)[C@H](CC(N)=O)NC(=O)c1ccccc1)C(C)C)C(=O)N1CCC[C@H]1C(=O)N[C@@H](CCC(N)=O)C(=O)O"
readout_kind = "Conc. after 4-hour in HBSS"
test_value = 98.62

[[record]]
structure_string = "CC[C@H](C)[C@H](NC(=O)[C@H](CO)NC(=O)[C@@H](NC(=O)[C@@H]1CCCN1C(=O)[C@H](C)NC(=O)[C@H](CC(N)=O)NC(=O)c1cccs1)C(C)C)C(=O)N1CCC[C@H]1C(=O)N[C@@H](CCC(N)=O)C(=O)O"
readout_kind = "Conc. after 4-hour in HBSS"
test_value = 99.88

[[record]]
structure_string = "CCCCCCCCCCCCOC(=O)N[C@@H](CC(N)=O)C(=O)N[C@@H](C)C(=O)N1CCC[C@H]1C(=O)N[C@H](C(=O)N[C@@H](CO)C(=O)N[C@H](C(=O)N1CCC[C@H]1C(=O)N[C@@H](CCC(N)=O)C(=O)O)[C@@H](C)CC)C(C)C"
readout_kind = "Conc. after 4-hour in HBSS"
test_value = 130.04

[[record]]
structure_string = "CC[C@H](C)[C@H](NC(=O)[C@H](CO)NC(=O)[C@@H](NC(=O)[C@@H]1CCCN1C(=O)[C@H](C)NC(=O)[C@H](CC(N)=O)NC(=O)OCC(C)C)C(C)C)C(=O)N1CCC[C@H]1C(=O)N[C@@H](CCC(N)=O)C(N)=O"
readout_kind = "Conc. after 4-hour in HBSS"
test_value = 100.17

[[record]]
structure_string = "CCCCC(=O)N[C@@H](CC(N)=O)C(=O)N[C@@H](C)C(=O)N1CCC[C@H]1C(=O)N[C@H](C(=O)N[C@@H](CO)C(=O)N[C@H](C(=O)N1CCC[C@H]1C(=O)N[C@@H](CCC(N)=O)C(=O)O)[C@@H](C)CC)C(C)C"
readout_kind = "Conc. after 4-hour in HBSS"
test_value = 98.36


I am curious: what Conc. after 4-hour in HBSS value has been reported for `CCCCCCOC(=O)N[C@@H](CC(N)=O)C(=O)N[C@@H](C)C(=O)N1CCC[C@H]1C(=O)N[C@H](C(=O)N[C@@H](CO)C(=O)N[C@H](C(=O)N1CCC[C@H]1C(=O)N[C@@H](CCC(N)=O)C(=O)O)[C@@H](C)CC)C(C)C` ? 99.16

I am curious: what Conc. after 4-hour in HBSS value has been reported for `CCCC(=O)N[C@@H](CC(N)=O)C(=O)N[C@@H](C)C(=O)N1CCC[C@H]1C(=O)N[C@H](C(=O)N[C@@H](CO)C(=O)N[C@H](C(=O)N1CCC[C@H]1C(=O)N[C@@H](CCC(N)=O)C(N)=O)[C@@H](C)CC)C(C)C` ? 100.39
